System: TNIK;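 note: KINOMEscan kinase panel screen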
conditionParameters: concentration: 1 μM, replicates: in singlicate; n = 1
reportedMetric: %Inh (%)
All answers are understood in %, so give the number only.

(Q) Can you look up the measured %Inh of Cn1cc(-c2ccc3c(c2)CCN3C(=O)Cc2cc(F)cc(F)c2F)c2c(N)ncnc21 [GSK2634140] for me?
(A) 5

(Q) Can you look up the measured %Inh of Cl.Cl.NCC(NC(=O)c1cc(-c2cccnc2)c(-c2ccnc3[nH]ccc23)s1)c1ccccc1 (stereo not shown) [GSK1323434] for me?
(A) 77

(Q) Can you look up the measured %Inh of CCOc1nccc(-c2c(-c3ccc(F)cc3)ncn2C2CCNCC2)n1 [SB-249175] for me?
(A) 49

(Q) Can you look up the measured %Inh of CN(C)c1ncnc2nc[nH]c12 [SKF-31736] for me?
(A) 0

(Q) Can you look up the measured %Inh of Cc1cc(-c2c(-c3ccc(F)cc3)ncn2CCCN2CCOCC2)nc(N)n1 [SB-222517] for me?
(A) 0

(Q) Can you look up the measured %Inh of Cc1ccc(O)cc1Nc1ccnc2ccc(C(C)(C)C)cc12 [GW856805] for me?
(A) 0

(Q) Can you look up the measured %Inh of Fc1cc(Cl)ccc1Nc1ccnc2cc(-c3ccc(CN4CCSCC4)o3)ccc12 [GW560106] for me?
(A) 47

(Q) Can you look up the measured %Inh of CCn1cnc2c(NCc3ccccc3)ncnc21 [SKF-96418] for me?
(A) 0

(Q) Can you look up the measured %Inh of Cc1ccc(NC(=O)c2ccnc(N3CCCCC3)c2)cc1-c1ccc(C(=O)NCC2CC2)cc1 [GW775610] for me?
(A) 0

(Q) Can you look up the measured %Inh of `CCNc1nccc(-c2c(-c3ccc(F)cc3)ncn2C2CCN(C)CC2)n1` for me?
(A) 24
